experimental target: T1, human PILRA, G78 variant, ectopically expressed on 293 cells (human, UniProt Q9UKJ1 20-303)
T1 construct: the cells are labelled G78; also called hA G78 OE; hA
T1 sequence (Q9UKJ1 other isoform, or with tags, fused parts or gaps mutant): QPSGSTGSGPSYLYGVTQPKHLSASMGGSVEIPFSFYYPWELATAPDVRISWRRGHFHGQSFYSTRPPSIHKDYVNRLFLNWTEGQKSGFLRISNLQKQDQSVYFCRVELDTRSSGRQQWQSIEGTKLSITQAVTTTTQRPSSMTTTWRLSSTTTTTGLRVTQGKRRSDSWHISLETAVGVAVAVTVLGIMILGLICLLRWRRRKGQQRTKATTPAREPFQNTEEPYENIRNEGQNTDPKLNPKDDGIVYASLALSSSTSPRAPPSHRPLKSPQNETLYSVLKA
assay method text: flow cytometry, 293 cells expressing target
Below, each entry is listed alongside its reported EC50.

- binder: "E3 (antibody, V domains shown, second hybridoma campaign) VH: QAYLQQSGAELVRSGASVKMSCKASGNTFTYYNLHWIRQTPGQGLEWIGYIFPGNGDAYYNQNFKGKATLTADTSSSTAYMQISSLTFEDSAVYFCARSPHYYGSGFDYWGQGTPLTVSS VL: DIQMTQSSSYLSVSLGGGVTITCKASDHINNWLAWYQQKPGNAPRLLISGATSLETGVPSRFSGSGSGKDYTLSITSLQTEDVATYYCQQYWSTPWTFGGGTKLEIK"
  EC50, µg/mL: 0.22
- binder: "A2 (antibody, V domains shown, phage campaign) VH: EVQLLESGGGLVKPGGSLRLSCAASGFTFSDYYMSWVRQAPGKGLEWVSSISIGGGGTYYADSVKGRFTISRDDSKNTLYLQMNSLRAEDTAVYYCASHGFGARKMDFWGQGTTVTVSS VL: DIQMTQSPSSLSASVGDRVTITCRASQSIRSYVNWYQQKPGKAPKLLIYDASNLETGVPSRFSGSGSGTDFTLTISSLQPEDFATYYCQQSYSPPITFGQGTKVEIK"
  EC50, µg/mL: 0.3
